# assayed.target: Phosphatidylinositol 4,5-bisphosphate 3-kinase catalytic subunit beta isoform (Homo sapiens)
# Sequence (P42338 whole entry, canonical isoform): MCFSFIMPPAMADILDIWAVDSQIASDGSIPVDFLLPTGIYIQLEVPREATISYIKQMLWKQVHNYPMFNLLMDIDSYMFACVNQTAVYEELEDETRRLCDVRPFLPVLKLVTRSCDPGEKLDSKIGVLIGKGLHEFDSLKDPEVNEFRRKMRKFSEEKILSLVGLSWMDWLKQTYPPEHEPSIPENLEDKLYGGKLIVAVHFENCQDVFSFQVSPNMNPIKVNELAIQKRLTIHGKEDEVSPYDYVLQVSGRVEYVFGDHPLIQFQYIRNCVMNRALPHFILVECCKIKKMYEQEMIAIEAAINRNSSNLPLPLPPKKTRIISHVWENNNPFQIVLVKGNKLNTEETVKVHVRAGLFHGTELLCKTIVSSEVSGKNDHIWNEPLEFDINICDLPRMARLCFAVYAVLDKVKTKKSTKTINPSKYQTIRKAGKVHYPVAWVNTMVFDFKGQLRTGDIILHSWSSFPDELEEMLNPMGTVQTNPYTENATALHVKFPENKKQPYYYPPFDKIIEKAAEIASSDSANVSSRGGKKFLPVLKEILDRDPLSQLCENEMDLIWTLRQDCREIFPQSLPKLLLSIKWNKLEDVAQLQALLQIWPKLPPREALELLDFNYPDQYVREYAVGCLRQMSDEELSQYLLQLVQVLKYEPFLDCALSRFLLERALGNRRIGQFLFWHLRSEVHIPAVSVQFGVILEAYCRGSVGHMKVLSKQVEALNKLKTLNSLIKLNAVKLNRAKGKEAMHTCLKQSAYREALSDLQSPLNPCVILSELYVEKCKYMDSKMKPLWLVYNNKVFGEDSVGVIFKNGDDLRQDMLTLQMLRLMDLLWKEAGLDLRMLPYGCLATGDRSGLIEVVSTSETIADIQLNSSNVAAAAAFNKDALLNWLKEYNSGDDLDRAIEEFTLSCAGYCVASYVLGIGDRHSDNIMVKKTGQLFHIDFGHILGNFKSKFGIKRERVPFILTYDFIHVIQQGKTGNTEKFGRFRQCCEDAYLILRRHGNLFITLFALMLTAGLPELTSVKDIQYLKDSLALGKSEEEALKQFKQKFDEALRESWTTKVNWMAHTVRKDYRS
# assay: Inhibition of PI3Kbeta in human MAD-MB-468 cells assessed as inhibition of Ser473 Akt phosphorylation by cellular potency assay
pIC50: −log10 of the molar value.
Note to self: values exactly at 8 are met. So pIC50 at or above 8 is met, below is not met.

Some entries whose results are on file:
CC(Nc1cccc(F)c1)c1cc(C(=O)N(C)C)cn2c(=O)cc(N3CCOCC3)nc12 (racemic)    not met
CC(Nc1ccccc1)c1cc(C(=O)N(C)C)cn2c(=O)cc(N3CCOCC3)nc12 (single isomer, unassigned; (+))    not met
C[C@@H](Nc1cc(F)cc(F)c1)c1cc(C(=O)N(C)C)cn2c(=O)cc(N3CCOCC3)nc12    met
CC(Nc1ccccc1F)c1cc(C(=O)NCCN(C)C)cn2c(=O)cc(N3CCOCC3)nc12 (racemic)    not met
Cc1ccc(NC(C)c2cc(C(=O)NCCN(C)C)cn3c(=O)cc(N4CCOCC4)nc23)cc1 (racemic)    not met

Identify whether the reported pIC50 of the following compound is 8 or greater: CC(Nc1cc(F)cc(F)c1F)c1cc(C(=O)N(C)C)cn2c(=O)cc(N3CCOCC3)nc12 (single isomer, unassigned; (-))
not met

Identify whether the reported pIC50 of the following compound is 8 or greater: CC(Nc1cccc(Cl)c1F)c1cc(C(=O)NCCN(C)C)cn2c(=O)cc(N3CCOCC3)nc12 (single isomer, unassigned; (-))
met

###

# assayed.target: Phosphatidylinositol 4,5-bisphosphate 3-kinase catalytic subunit delta isoform (Homo sapiens, UniProt O00329)
# Sequence (O00329 whole entry, canonical isoform): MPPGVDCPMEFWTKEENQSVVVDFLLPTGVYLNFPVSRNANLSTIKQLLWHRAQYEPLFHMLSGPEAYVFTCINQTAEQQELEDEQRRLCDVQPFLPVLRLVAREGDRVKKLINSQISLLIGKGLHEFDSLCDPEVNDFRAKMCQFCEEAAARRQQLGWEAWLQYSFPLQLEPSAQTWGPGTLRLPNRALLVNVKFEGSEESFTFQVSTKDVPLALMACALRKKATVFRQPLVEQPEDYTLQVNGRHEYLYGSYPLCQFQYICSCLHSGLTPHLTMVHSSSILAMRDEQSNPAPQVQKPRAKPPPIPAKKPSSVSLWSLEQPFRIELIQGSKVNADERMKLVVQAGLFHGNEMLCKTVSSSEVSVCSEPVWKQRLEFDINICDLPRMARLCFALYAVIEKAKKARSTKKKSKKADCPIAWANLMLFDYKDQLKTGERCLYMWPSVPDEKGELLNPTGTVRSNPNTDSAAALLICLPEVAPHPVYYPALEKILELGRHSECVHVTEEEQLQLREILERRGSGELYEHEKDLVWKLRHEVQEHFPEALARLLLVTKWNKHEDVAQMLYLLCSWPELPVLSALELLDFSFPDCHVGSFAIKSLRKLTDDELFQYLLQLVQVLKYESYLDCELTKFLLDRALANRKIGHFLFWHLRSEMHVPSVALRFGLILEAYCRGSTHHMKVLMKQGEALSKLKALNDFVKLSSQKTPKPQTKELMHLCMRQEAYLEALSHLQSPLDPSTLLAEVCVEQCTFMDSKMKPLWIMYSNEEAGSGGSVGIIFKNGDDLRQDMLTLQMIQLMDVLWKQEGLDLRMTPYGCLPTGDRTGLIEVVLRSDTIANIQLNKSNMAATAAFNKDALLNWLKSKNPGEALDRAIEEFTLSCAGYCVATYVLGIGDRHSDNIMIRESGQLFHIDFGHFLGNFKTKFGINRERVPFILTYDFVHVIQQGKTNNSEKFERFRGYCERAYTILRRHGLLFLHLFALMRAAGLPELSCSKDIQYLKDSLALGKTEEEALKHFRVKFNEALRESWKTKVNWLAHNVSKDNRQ
# assay: Inhibition of human recombinant PI3Kdelta assessed as depletion of ATP substrate by Ultra Glo luciferase assay
pIC50: −log10 of the molar value.
Note to self: values exactly at 7 are yes. So pIC50 at or above 7 is yes, below is no.

CC(Nc1cccc(Cl)c1F)c1cc(C(=O)NCCN(C)C)cn2c(=O)cc(N3CCOCC3)nc12 (single isomer, unassigned; (-))    yes
CC(Nc1ccc(F)cc1)c1cc(C(=O)N(C)C)cn2c(=O)cc(N3CCOCC3)nc12 (single isomer, unassigned; (-))    no
CC(Nc1ccc(F)c(F)c1)c1cc(C(=O)N(C)C)cn2c(=O)cc(N3CCOCC3)nc12 (single isomer, unassigned; (-))    yes

--- query ---
Identify whether the reported pIC50 of the following molecule is 7 or greater: "C[C@@H](Nc1cc(F)cc(F)c1)c1cc(C(=O)N(C)C)cn2c(=O)cc(N3CCOCC3)nc12"
yes

###

# assayed.target: Phosphatidylinositol 4,5-bisphosphate 3-kinase catalytic subunit alpha isoform (Homo sapiens)
# Sequence (P42336 whole entry, canonical isoform): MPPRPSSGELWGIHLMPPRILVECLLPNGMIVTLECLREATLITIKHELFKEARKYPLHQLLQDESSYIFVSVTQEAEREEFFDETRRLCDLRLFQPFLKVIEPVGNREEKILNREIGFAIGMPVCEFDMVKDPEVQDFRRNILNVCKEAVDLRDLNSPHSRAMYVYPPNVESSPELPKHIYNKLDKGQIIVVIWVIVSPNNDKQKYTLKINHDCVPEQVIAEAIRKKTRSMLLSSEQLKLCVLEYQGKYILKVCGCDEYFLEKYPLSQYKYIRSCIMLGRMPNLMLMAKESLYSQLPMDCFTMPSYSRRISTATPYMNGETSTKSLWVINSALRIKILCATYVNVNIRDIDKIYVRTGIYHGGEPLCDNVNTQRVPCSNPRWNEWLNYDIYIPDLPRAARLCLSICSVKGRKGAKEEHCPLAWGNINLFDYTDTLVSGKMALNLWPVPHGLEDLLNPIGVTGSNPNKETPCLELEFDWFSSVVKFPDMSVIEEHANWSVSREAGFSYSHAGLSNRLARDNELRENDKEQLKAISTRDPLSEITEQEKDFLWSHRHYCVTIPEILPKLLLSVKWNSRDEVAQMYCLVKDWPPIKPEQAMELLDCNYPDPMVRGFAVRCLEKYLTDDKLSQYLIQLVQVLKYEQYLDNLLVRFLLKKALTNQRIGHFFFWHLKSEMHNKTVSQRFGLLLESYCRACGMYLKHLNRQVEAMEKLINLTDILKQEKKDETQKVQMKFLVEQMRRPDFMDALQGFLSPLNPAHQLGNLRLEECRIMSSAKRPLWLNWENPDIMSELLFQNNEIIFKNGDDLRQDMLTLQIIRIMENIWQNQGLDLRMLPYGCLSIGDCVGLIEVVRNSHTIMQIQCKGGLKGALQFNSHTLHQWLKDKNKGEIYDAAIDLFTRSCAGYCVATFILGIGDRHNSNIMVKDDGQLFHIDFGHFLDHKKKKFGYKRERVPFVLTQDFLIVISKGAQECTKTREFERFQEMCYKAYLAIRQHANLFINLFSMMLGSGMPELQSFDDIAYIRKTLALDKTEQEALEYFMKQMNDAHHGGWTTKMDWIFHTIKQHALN
# assay: Inhibition of PI3Kalpha in human BT474 cells assessed as inhibition of […] Akt phosphorylation after 2 hrs by fluorescence assay
# Format: cell-based, BT-474
Entries and their pIC50
Scale: negative log10 of molar concentration, which is what pIC50 denotes.

CC(Nc1cccc(Cl)c1F)c1cc(C(=O)NCCN(C)C)cn2c(=O)cc(N3CCOCC3)nc12 (single isomer, unassigned; (-))    6.01
C[C@@H](Nc1cc(F)cc(F)c1)c1cc(C(=O)N(C)C)cn2c(=O)cc(N3CCOCC3)nc12    5.92
CC(Nc1ccc(F)c(F)c1)c1cc(C(=O)N(C)C)cn2c(=O)cc(N3CCOCC3)nc12 (single isomer, unassigned; (-))    5.33
CC(Nc1ccccc1)c1cc(C(=O)N(C)C)cn2c(=O)cc(N3CCOCC3)nc12 (single isomer, unassigned; (+))    5.02
CC(Nc1ccc(F)cc1)c1cc(C(=O)N(C)C)cn2c(=O)cc(N3CCOCC3)nc12 (single isomer, unassigned; (-))    4.94

Query: pIC50; subject: CC(Nc1ccccc1)c1cc(C(=O)NCCN(C)C)cn2c(=O)cc(N3CCOCC3)nc12 (single isomer, unassigned; (-))
5.66
